Task for the reader: assign each of the following binders its reported koff.
# TGT: T1, recombinant human GM-CSF (Peprotech) (human, UniProt P04141 18-144)
# T1 construct: Commercial recombinant protein; also called granulocyte-macrophage colony stimulating factor
# PROTOCOL_DESCRIPTION: SPR (BIAcore); recombinant human GM-CSF coupled to CM5 chip, antibody injected at 66.7-4.17 nM
# Description: A second experiment was performed to determine the kinetics with which these antibodies bind to human GM-CSF. A range of antibody concentration was prepared in HBS-EP from 66.7 nM to 4.17 nM with 2-fold serial dilution. Again direct binding was quantitated using recombinant GM-CSF coupled to a CM5 chip—an uncoated flow cell was used as a reference. The antibody at each concentration was injected for 2 minutes with a stabilisation time of 10 minutes and dissociation time of 15 minutes. […]
Give bare numbers, in s⁻¹.

hGM4/2 (antibody, V domains shown, Heavy h4/20 with human gamma 1 constant (hG1), light h4a with human kappa constant (hKa); also called h4K21-2) VH: EVQLVESGGGLVQPGGSLRLSCAASGFAFSAYDMSWVRQAPGKGLEWVSYISSGGSSFYYPDTVKGRFTISRDNAKNSLYLQMNSLRAEDTAVYYCARHLGFDYWGQGTLVTVSS VL: DVVMTQSPLSLPVTLGQPASISCRSSQSLVNSNGNTYLHWFQQRPGQSPRRLIYKVSNRFSGVPDRFSGSGSGTDFTLKISRVEAEDVGVYYCSQSTHVPPTFGGGTKVEIK :: 4.7e-05

Exam item: Recorded koff for hGM4/6 (antibody, V domains shown, Heavy h4/10 with human gamma 1 constant (hG1), light h4b with human kappa constant (hKa); also called h4K21-6) VH: QVQLQESGGGLVKPGGSLKLSCAASGFAFSAYDMSWVRQTPDKRLEWVAYISSGGSSFYYPDTVKGRFTISRDNAKNTLYLQMSSLKSEDTAMYYCARHLGFDYWGQGTMVTVSS VL: DVVMTQSPLSLPVTLGQPASISCRSSQSLVNSNGNTYLHWFQQRPGQSPRRLIYKVSNRFSGVPDRFSGSGSGTDFTLKISRVEAEDVGVYYCSQSTHVPPTFGQGTKLEIK , please?
Marked response: 1.6e-05
